Assay: GSH-induced H2S release assessed as peak H2S level in pH 7.4 PBS buffer containing 10% THF incubated for 2 hrs at room temperature in presence of cysteine by methylene blue based UV-Vis spectrometry
Assay type: physicochemical
Conditions: pH 7.4, 2 h
Assay endpoint: Activity (µM)
Write it as a number; the unit µM goes unstated.

Molecule	Unit spec	Activity
Cc1cccc(C(=O)SNC(=O)c2ccccc2)c1	µM	49.3

Give the measured Activity of O=C(NSC(=O)c1ccccc1)Nc1ccc(Cl)cc1 .
10.7

----------
Test: […] peak time for H2S release in pH 7.4 PBS buffer containing 10% THF incubated for 2 hrs at room temperature in presence of 1 mM GSH by methylene blue based UV-Vis spectrometry
Type: physicochemical
Conditions: pH 7.4, 2 h
Assay endpoint: Time (min)
Write it as a number; the unit min goes unstated.

Some solved entries appear below for comparison.
Compound	Time [min]
CC(C(=O)SNC(=O)c1ccccc1)c1ccccc1 (stereo not drawn)	70
CC(=O)Oc1ccccc1C(=O)NSC(=O)c1ccccc1	60
CC(=O)SNC(=O)c1ccccc1	70
CCC(=O)NSC(=O)c1ccccc1	60
O=C(NSC(=O)c1ccc(F)cc1)Nc1ccccc1	90
O=C(NSC(=O)c1ccccc1)Nc1ccc(Cl)cc1	120
COc1ccc(C(=O)SNC(=O)Nc2ccccc2)cc1	120
O=C(NSC(=O)c1ccccc1)Nc1ccccc1	110

Give the measured Time of CN(C)c1ccc(C(=O)SNC(=O)c2ccccc2)cc1 .
80

Try this compound next: O=C(NSC(=O)c1ccccc1)c1ccccc1
65

Try this compound next: O=C(NSC(=O)c1ccc(Cl)cc1)Nc1ccccc1
120

Try this compound next: Cc1ccc(C(=O)SNC(=O)c2ccccc2)cc1
60

Try this compound next: O=C(NSC(=O)c1ccc(C(F)(F)F)cc1)c1ccccc1
60

Try this compound next: O=C(NSC(=O)c1ccccc1)c1cccc(Cl)c1
70

Try this compound next: Cc1cccc(C(=O)SNC(=O)c2ccccc2)c1
65

Try this compound next: O=C(NSC(=O)c1ccc(F)cc1)c1ccccc1
55

Every entry's value here was drawn from ChEMBL document CHEMBL3612036.
